study system: G-protein coupled receptor 183 (Homo sapiens)
Sequence (P32249 whole entry): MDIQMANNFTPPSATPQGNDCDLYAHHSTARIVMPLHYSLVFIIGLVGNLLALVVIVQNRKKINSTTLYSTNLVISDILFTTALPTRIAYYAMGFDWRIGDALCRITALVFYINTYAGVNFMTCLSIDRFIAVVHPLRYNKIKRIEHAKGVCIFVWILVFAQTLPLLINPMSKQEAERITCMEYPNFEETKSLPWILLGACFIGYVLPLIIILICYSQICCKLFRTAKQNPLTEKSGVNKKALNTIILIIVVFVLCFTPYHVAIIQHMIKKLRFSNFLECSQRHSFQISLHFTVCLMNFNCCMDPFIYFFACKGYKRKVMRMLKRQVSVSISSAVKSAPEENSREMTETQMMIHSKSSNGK
protocol summary: Agonist activity at human GPR183 expressed in PathHunter CHO-K1 cells assessed as activation by measuring beta-arrestin2 recruitment

compound	study system	EC50
CCCCCc1cc(O)c2c(c1)OC(C)(C)[C@@H]1CCC(C)=C[C@@H]21 [DRONABINOL]	G-protein coupled receptor 183 (Homo sapiens)	0.038 µM

---

study system: UniProt Q9Y2T6
Sequence (Q9Y2T6 whole entry): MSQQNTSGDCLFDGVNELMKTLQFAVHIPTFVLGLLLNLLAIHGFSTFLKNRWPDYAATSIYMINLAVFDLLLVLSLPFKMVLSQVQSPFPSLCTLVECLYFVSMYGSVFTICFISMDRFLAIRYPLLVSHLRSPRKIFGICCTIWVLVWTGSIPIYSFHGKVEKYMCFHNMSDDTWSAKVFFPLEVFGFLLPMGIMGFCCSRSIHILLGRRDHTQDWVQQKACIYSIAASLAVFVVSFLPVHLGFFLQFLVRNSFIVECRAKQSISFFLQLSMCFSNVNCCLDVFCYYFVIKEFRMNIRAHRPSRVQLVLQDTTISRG
protocol summary: Agonist activity at human GPR55 expressed in CHO-K1 cells by beta-arrestin2 recruitment assay
pEC50: −log10 of the molar value.

smiles data	pEC50
Cn1c(=O)c2c(nc(NCCc3c[nH]c4ccccc34)n2Cc2ccc(Cl)cc2)n(C)c1=O	< 5.00
